# maps each entry to its pIC50
Biological target: human recombinant cytochrome P450 2C9 (Homo sapiens, UniProt P11712)
Sequence (P11712 whole entry): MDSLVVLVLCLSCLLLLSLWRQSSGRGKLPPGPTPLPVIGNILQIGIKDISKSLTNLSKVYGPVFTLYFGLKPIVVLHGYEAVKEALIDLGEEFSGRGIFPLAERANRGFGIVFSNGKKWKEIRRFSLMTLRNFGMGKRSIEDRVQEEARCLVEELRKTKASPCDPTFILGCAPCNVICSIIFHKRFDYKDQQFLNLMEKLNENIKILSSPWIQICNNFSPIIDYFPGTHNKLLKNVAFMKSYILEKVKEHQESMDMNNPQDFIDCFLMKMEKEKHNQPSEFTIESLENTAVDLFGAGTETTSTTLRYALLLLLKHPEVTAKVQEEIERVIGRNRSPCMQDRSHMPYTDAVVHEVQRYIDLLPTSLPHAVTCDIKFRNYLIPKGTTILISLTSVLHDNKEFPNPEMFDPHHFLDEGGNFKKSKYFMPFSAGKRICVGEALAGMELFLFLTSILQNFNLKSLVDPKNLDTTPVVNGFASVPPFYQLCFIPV
Assay: biochemical
pIC50: −log10 of the molar value.

| query.smiles | measurement.target | pIC50 |
| --- | --- | --- |
| COC[C@]1(c2ccccc2)CCN([C@@H](C)c2ccc(-c3ccc(=O)n(C)c3)cc2)C(=O)O1 | human recombinant cytochrome P450 2C9 (Homo sapiens, UniProt P11712) | < 4.30 |
| C[C@@H](c1ccc(-c2ccc(=O)n(C)c2)cc1)N1CC[C@](CC(C)(C)O)(c2ccccc2F)OC1=O | human recombinant cytochrome P450 2C9 (Homo sapiens, UniProt P11712) | < 4.30 |

---

Molecular target: human recombinant cytochrome P450 3A4 (Homo sapiens, UniProt P08684)
Sequence (P08684 whole entry): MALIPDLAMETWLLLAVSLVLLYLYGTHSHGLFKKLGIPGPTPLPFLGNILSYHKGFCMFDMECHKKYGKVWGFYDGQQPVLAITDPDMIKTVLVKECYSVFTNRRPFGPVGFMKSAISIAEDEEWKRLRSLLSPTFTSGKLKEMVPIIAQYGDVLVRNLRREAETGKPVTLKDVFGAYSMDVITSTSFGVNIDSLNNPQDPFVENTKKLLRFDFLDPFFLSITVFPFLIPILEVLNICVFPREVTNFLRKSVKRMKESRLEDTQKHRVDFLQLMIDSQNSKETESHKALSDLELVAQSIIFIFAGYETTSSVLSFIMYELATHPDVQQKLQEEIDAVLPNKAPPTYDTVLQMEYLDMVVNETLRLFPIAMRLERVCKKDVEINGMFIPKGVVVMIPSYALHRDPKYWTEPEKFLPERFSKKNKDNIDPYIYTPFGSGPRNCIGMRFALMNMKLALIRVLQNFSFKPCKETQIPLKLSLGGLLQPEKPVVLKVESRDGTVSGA
Assay: Biological Test Example 6: CYP3A4 inhibition
pIC50: −log10 of the molar value.
# pIC50 listing for each entry below

| query.smiles | pIC50 |
| --- | --- |
| CC[C@@H](c1ccc(-c2ccc(=O)n(CC)c2)cc1)N1CC[C@](CC(C)(C)O)(c2ccccc2)OC1=O | 4.32 |
| C[C@@H](c1ccc(-c2ccc(=O)n(C)c2)cc1)N1CC[C@](CC(C)(C)O)(c2ccccc2F)OC1=O | < 4.30 |
| COC[C@]1(c2ccccc2)CCN([C@@H](C)c2ccc(-c3ccc(=O)n(C)c3)cc2)C(=O)O1 | < 4.30 |
